- Tested on: HEK-293
- assay_remarks: MTT cytotoxicity assay
- Format: cell-based
- measurement_setup: Homo sapiens, HEK293, 48 h, decreases cell viability by 50%
measurement_type: IC50

## Input Can you look up the measured IC50 of O=c1cc(-c2ccccc2)oc2cc(O)cc(O)c12 [Chrysin, 5,7-dihydroxyflavone] for me?
## Output > 90 µM
